Task for the reader: assign each of the following sequences its reported binding signal.
Molecular target: GST-Dm-Relish (Drosophila melanogaster, UniProt Q94527 99-473)
Sequence: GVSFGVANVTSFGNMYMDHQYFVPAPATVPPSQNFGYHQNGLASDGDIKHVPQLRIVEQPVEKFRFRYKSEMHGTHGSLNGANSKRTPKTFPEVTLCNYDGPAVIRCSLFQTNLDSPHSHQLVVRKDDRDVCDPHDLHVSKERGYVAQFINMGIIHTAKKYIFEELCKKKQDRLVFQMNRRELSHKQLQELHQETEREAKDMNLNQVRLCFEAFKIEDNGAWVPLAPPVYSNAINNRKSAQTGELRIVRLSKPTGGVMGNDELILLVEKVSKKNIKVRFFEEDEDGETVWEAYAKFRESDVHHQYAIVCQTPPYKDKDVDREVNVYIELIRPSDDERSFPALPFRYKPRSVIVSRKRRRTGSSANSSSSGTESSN
Assay: protein-binding microarray (PBM); PBM: ~300 nM protein, 6 mM HEPES pH 7.8, 80 mM KCl, 0.5 mM EDTA, 0.5 mM EGTA, 6% glycerol, 35 ng/ul poly-dIdC, 1% milk, 1 h, room temperature; high values mean tight binding
Conditions: dsDNA, one strand shown
Answers are plain numbers, in z-score.

Solved entries:
- SEQUENCE TEXT: "CCGATTAACATCAAAAATCCCAGTGATGTTAATCGGGTCTTGATTCGCTTGACGCTGCTG"
  STUDY TARGET: "GST-Dm-Relish (Drosophila melanogaster, UniProt Q94527 99-473)"
  binding signal [z-score]: 7.35
- SEQUENCE TEXT: "CCGATTAACATCAGGGGATCTTATGATGTTAATCGGGTCTTGATTCGCTTGACGCTGCTG"
  STUDY TARGET: "GST-Dm-Relish (Drosophila melanogaster, UniProt Q94527 99-473)"
  binding signal [z-score]: 6.67
- SEQUENCE TEXT: "CCGATTAACATCAGGGAATGTTATGATGTTAATCGGGTCTTGATTCGCTTGACGCTGCTG"
  STUDY TARGET: "GST-Dm-Relish (Drosophila melanogaster, UniProt Q94527 99-473)"
  binding signal [z-score]: 1.85
- SEQUENCE TEXT: "CCGATTAACATCAGGATTTTTTATGATGTTAATCGGGTCTTGATTCGCTTGACGCTGCTG"
  STUDY TARGET: "GST-Dm-Relish (Drosophila melanogaster, UniProt Q94527 99-473)"
  binding signal [z-score]: 2.63

# value lookup — system GST-Dm-Relish (Drosophila melanogaster, UniProt Q94527 99-473), readout binding signal, item `CCGATTAACATCAAAAATTTCCGTGATGTTAATCGGGTCTTGATTCGCTTGACGCTGCTG`
1.61

* * *

Give binding signal for every item shown.
Biological target: GST-Co-NF-kB (Capsaspora owczarzaki, UniProt F1ARL5 200-546)
Sequence: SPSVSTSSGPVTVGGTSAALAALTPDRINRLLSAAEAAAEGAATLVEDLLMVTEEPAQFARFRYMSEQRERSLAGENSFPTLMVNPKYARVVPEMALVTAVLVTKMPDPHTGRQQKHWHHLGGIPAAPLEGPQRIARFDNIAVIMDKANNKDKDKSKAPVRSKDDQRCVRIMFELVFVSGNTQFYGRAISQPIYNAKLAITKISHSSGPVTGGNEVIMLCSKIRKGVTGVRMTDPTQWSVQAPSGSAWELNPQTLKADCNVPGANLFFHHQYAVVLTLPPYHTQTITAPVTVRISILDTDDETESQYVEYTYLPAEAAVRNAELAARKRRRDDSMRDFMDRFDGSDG
Assay: protein-binding microarray (PBM); PBM: ~300 nM protein, 6 mM HEPES pH 7.8, 80 mM KCl, 0.5 mM EDTA, 0.5 mM EGTA, 6% glycerol, 35 ng/ul poly-dIdC, 1% milk, 1 h, room temperature; Ap Aiptasia and Nv Nematostella (sea anemones) / Co Capsaspora / Aq Amphimedon (sponge) / Dm Drosophila / Hu human; RHD is the Rel homology domain; high values mean tight binding
Conditions: dsDNA, one strand shown
Answers are plain numbers, in z-score.

- SEQUENCE TEXT: "CCGATTAACATCAGGGGTTCACCTGATGTTAATCGGGTCTTGATTCGCTTGACGCTGCTG"
  binding signal [z-score]: 1.45
- SEQUENCE TEXT: "CCGATTAACATCACGTATTCCCCTGATGTTAATCGGGTCTTGATTCGCTTGACGCTGCTG"
  binding signal [z-score]: 6.56
- SEQUENCE TEXT: "CCGATTAACATCAGACAATCCCCTGATGTTAATCGGGTCTTGATTCGCTTGACGCTGCTG"
  binding signal [z-score]: 2.24

Provide binding signal for all items below, preserving their order.
1. CCGATTAACATCAAAACGTCCCCTGATGTTAATCGGGTCTTGATTCGCTTGACGCTGCTG
2. CCGATTAACATCAATTTGGGAAATGATGTTAATCGGGTCTTGATTCGCTTGACGCTGCTG
3. CCGATTAACATCAGCAATCCCCCTGATGTTAATCGGGTCTTGATTCGCTTGACGCTGCTG
4. CCGATTAACATCAGAAAACCCCATGATGTTAATCGGGTCTTGATTCGCTTGACGCTGCTG
5. CCGATTAACATCAAAGTCCCCCCTGATGTTAATCGGGTCTTGATTCGCTTGACGCTGCTG
6. CCGATTAACATCAGGGGAAATACTGATGTTAATCGGGTCTTGATTCGCTTGACGCTGCTG
7. CCGATTAACATCAGGGGGGTAAATGATGTTAATCGGGTCTTGATTCGCTTGACGCTGCTG
8. CCGATTAACATCAGGGAATGTACTGATGTTAATCGGGTCTTGATTCGCTTGACGCTGCTG

[5.34, 1.92, 4.31, 1.75, 9.05, 8.2, 7.69, 2.29]

Here are 2 sequences. What values of binding signal were reported for them?
1. CCGATTAACATCAGAAACCCCCCTGATGTTAATCGGGTCTTGATTCGCTTGACGCTGCTG
2. CCGATTAACATCAAGTCCCCCCATGATGTTAATCGGGTCTTGATTCGCTTGACGCTGCTG

3.94
6.53

Give one value of binding signal per listed sequence.
1. CCGATTAACATCAGGGGGGGACATGATGTTAATCGGGTCTTGATTCGCTTGACGCTGCTG
2. CCGATTAACATCAGGGAATGCCATGATGTTAATCGGGTCTTGATTCGCTTGACGCTGCTG

7.08
1.43

Hey, just so you know, these numbers are from paper PMC5700166.
